Each entry below carries its recorded IC50.
target: human Nav1.7 (hNav1.7) (Homo sapiens); construct: expressed in transfected cells; test: hNav1.7 whole-cell patch-clamp electrophysiology (automated PatchXpress 7000A or manual) in stably expressing 293 cells; assay type: cell-based; conditions: average IC50

{"COMPOUND": "CNC(=O)c1cccc(Nc2ncnc(NCCc3nnc(-c4ccc(C)s4)o3)n2)c1 [Example 287]", "TEST_TARGET": "human Nav1.7 (hNav1.7) (Homo sapiens)", "REPORTED_RELATION": ">", "IC50 [µM]": 30}
{"COMPOUND": "CNC(=O)c1cccc(Nc2nc(C)nc(N3CC(Oc4ccc(F)cc4)C3)n2)c1 [Example 284]", "TEST_TARGET": "human Nav1.7 (hNav1.7) (Homo sapiens)", "REPORTED_RELATION": ">", "IC50 [µM]": 30}
{"COMPOUND": "CNC(=O)c1cccc(Nc2ncnc(N3CCc4cccc(OC)c4C3)n2)c1 [Example 281]", "TEST_TARGET": "human Nav1.7 (hNav1.7) (Homo sapiens)", "REPORTED_RELATION": "=", "IC50 [µM]": 27.9}
{"COMPOUND": "CNC(=O)c1cccc(Nc2ncnc(N3CC(C)(COc4ccccc4)C3)n2)c1 [Example 273]", "TEST_TARGET": "human Nav1.7 (hNav1.7) (Homo sapiens)", "REPORTED_RELATION": "=", "IC50 [µM]": 22.1}
{"COMPOUND": "CNC(=O)c1cccc(Nc2ncnc(N3CCc4oc(-c5ccccc5)cc4C3)n2)c1 [Example 265]", "TEST_TARGET": "human Nav1.7 (hNav1.7) (Homo sapiens)", "REPORTED_RELATION": "=", "IC50 [µM]": 19.2}
{"COMPOUND": "Cc1c(Nc2ncnc(N3CCC(OCc4ccc(OC(F)(F)F)cc4)CC3)n2)cccc1C(N)=O [Example 267]", "TEST_TARGET": "human Nav1.7 (hNav1.7) (Homo sapiens)", "REPORTED_RELATION": "=", "IC50 [µM]": 20.9}
{"COMPOUND": "NC(=O)c1cc(Nc2ncnc(N3CC(Oc4ccc(F)cc4)C3)n2)ccc1F [Example 291]", "TEST_TARGET": "human Nav1.7 (hNav1.7) (Homo sapiens)", "REPORTED_RELATION": ">", "IC50 [µM]": 30}
{"COMPOUND": "CNC(=O)c1cccc(Nc2ncc(F)c(N3CC(Oc4ccc(F)cc4)C3)n2)c1 [Example 285]", "TEST_TARGET": "human Nav1.7 (hNav1.7) (Homo sapiens)", "REPORTED_RELATION": ">", "IC50 [µM]": 30}

###

molecular target: human Nav1.7 (hNav1.7) (Homo sapiens, UniProt Q15858); construct: expressed in transfected cells; assay: hNav1.7 whole-cell patch-clamp electrophysiology (automated PatchXpress 7000A or manual) in stably expressing 293 cells; format: cell-based; settings: average IC50, human Nav1.7
Sequence (Q15858 whole entry): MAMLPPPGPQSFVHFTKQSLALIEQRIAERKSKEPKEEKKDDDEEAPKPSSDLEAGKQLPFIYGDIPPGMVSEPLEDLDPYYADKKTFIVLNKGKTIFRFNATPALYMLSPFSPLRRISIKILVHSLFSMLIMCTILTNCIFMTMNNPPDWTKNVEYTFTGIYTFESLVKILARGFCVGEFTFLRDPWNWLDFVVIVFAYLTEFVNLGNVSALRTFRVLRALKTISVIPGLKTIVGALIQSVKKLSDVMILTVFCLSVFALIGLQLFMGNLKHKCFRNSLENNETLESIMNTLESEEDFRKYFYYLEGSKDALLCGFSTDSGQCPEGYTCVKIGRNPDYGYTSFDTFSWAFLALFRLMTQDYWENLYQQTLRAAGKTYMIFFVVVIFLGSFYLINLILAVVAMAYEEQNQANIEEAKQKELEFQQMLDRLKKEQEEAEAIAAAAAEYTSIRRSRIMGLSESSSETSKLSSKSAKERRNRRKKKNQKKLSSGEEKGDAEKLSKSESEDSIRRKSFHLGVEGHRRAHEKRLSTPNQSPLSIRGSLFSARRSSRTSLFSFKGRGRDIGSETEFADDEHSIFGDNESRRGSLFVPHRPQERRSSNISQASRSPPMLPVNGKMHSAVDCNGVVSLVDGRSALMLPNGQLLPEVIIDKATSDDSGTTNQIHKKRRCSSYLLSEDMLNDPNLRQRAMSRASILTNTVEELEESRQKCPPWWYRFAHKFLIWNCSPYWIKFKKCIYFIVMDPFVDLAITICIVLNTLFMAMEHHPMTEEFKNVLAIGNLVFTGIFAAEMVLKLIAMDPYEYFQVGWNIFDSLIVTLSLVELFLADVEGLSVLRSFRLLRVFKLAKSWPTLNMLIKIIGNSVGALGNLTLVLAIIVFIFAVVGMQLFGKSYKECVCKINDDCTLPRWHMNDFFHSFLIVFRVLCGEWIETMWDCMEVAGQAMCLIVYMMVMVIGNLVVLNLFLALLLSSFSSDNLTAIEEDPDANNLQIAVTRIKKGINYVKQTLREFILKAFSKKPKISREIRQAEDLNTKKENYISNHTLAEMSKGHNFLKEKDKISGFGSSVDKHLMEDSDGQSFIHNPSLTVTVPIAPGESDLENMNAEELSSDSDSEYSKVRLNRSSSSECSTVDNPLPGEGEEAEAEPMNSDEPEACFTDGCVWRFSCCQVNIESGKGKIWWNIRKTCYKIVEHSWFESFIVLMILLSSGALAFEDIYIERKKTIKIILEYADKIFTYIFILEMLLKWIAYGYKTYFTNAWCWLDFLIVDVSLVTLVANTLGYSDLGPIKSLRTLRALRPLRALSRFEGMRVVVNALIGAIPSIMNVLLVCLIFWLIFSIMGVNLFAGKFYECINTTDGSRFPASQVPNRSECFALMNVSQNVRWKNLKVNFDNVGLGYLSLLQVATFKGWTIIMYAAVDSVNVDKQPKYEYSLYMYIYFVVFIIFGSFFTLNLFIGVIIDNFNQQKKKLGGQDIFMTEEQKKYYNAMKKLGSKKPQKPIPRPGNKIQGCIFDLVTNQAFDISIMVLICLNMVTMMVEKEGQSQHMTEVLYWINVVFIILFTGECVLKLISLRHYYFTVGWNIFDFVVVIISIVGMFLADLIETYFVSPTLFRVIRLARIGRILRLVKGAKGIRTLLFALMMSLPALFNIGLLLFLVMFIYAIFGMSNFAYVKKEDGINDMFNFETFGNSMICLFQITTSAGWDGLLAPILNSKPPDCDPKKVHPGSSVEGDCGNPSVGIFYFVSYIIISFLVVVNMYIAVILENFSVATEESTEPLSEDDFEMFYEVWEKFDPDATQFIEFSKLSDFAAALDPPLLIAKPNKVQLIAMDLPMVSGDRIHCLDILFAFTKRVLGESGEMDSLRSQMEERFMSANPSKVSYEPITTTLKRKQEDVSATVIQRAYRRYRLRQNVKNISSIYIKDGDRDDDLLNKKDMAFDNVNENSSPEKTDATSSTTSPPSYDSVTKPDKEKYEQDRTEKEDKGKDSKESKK
Measured IC50, listed per entry.

{"TEST_SMILES": "CNC(=O)c1cccc(Nc2ncnc(NCCCOc3cccc(F)c3)n2)c1", "TEST_TARGET": "human Nav1.7 (hNav1.7) (Homo sapiens, UniProt Q15858)", "IC50, µM": 17.6}
{"TEST_SMILES": "CNC(=O)c1cccc(Nc2ncnc(N3CCN(c4ccc(Cl)cn4)CC3)n2)c1", "TEST_TARGET": "human Nav1.7 (hNav1.7) (Homo sapiens, UniProt Q15858)", "IC50, µM": 1.61}
{"TEST_SMILES": "CNC(=O)c1cccc(Nc2ncnc(N3CC(Oc4ccc(CC#N)cc4)C3)n2)c1", "TEST_TARGET": "human Nav1.7 (hNav1.7) (Homo sapiens, UniProt Q15858)", "IC50, µM": 7.98}
{"TEST_SMILES": "CNC(=O)c1cccc(Nc2ncnc(N3CCN(Cc4ccc(OC(F)(F)F)cc4)CC3)n2)c1", "TEST_TARGET": "human Nav1.7 (hNav1.7) (Homo sapiens, UniProt Q15858)", "IC50, µM": 4.85}

###

IC50 listing for selected compounds.
target: human Nav1.7 (hNav1.7) (Homo sapiens); construct: expressed in transfected cells; assay: hNav1.7 whole-cell patch-clamp electrophysiology (automated PatchXpress 7000A or manual) in stably expressing 293 cells; format: cell-based; details: average IC50, human Nav1.7
METRIC: IC50 (µM)

{"TEST_SMILES": "CNC(=O)c1cccc(Nc2ncnc(N3CC(COc4ccc(C#N)cc4)C3)n2)c1", "MEASUREMENT_UNITS": "µM", "OBSERVED": 16.9}
{"TEST_SMILES": "CNC(=O)c1cccc(Nc2ncnc(N3CCc4cc(OCCOC)ccc4C3)n2)c1", "MEASUREMENT_UNITS": "µM", "OBSERVED": 9.87}
{"TEST_SMILES": "CNC(=O)c1cccc(Nc2ncnc(N3CCc4cc(C)ccc4C3)n2)c1", "MEASUREMENT_UNITS": "µM", "OBSERVED": 5.28}
{"TEST_SMILES": "CNC(=O)c1cccc(Nc2ncnc(N3CCN(c4ccc(OC)cc4)CC3)n2)c1", "MEASUREMENT_UNITS": "µM", "OBSERVED": 3.5}

###

biological target: human Nav1.7 (hNav1.7) (Homo sapiens, UniProt Q15858); construct: expressed in transfected cells; test: hNav1.7 whole-cell patch-clamp electrophysiology (automated PatchXpress 7000A or manual) in stably expressing 293 cells; format: cell-based; conditions: average IC50, human Nav1.7
Examples of compounds with documented IC50 follow.
METRIC: IC50

{"TEST_SMILES": "NC(=O)c1cccc(Nc2ncnc(N3CCC(OCc4ccc(OC(F)(F)F)cc4)CC3)n2)c1", "OBSERVED": "7.03 µM"}
{"TEST_SMILES": "CNC(=O)c1cccc(Nc2ncnc(N3CC(Oc4ccc5c(c4)CCC5)C3)n2)c1", "OBSERVED": "0.35 µM"}
{"TEST_SMILES": "CNC(=O)c1cccc(Nc2ncnc(N3CC(COc4ccc5ccccc5c4)C3)n2)c1", "OBSERVED": "10 µM"}
{"TEST_SMILES": "CNC(=O)c1cccc(Nc2ccnc(N3CC(COc4ccc(Cl)cc4)C3)n2)c1", "OBSERVED": "6.8 µM"}

###

IC50 values by entry
molecular target: human Nav1.7 (hNav1.7) (Homo sapiens, UniProt Q15858); construct: expressed in transfected cells; experiment: hNav1.7 whole-cell patch-clamp electrophysiology (automated PatchXpress 7000A or manual) in stably expressing 293 cells; type: cell-based; settings: average IC50, human Nav1.7

{"COMPOUND": "CNC(=O)c1cccc(Nc2ncnc(N3CCC(Oc4ccc(OC(F)(F)F)c(F)c4)CC3)n2)c1 [Example 68]", "MEASUREMENT_UNITS": "µM", "IC50": 0.86}
{"COMPOUND": "CNC(=O)c1cccc(Nc2ncnc(N3CC(COc4cccc(C(F)(F)F)c4)C3)n2)c1 [Example 188]", "MEASUREMENT_UNITS": "µM", "IC50": 5.44}
{"COMPOUND": "CNC(=O)c1cccc(Nc2ncnc(N3CCC(Oc4ccc(Cl)cc4)CC3)n2)c1 [Example 145]", "MEASUREMENT_UNITS": "µM", "IC50": 2.9}
{"COMPOUND": "CNC(=O)c1cccc(Nc2ncnc(N3CCN(c4ccccc4C)CC3)n2)c1 [Example 89]", "MEASUREMENT_UNITS": "µM", "IC50": 1.26}
{"COMPOUND": "CNC(=O)c1cccc(Nc2ncnc(N3CC(COc4ccc(OC(F)(F)F)cc4)C3)n2)c1 [Example 67]", "MEASUREMENT_UNITS": "µM", "IC50": 0.85}
{"COMPOUND": "CCc1cccc(OC2CN(c3ncnc(Nc4cccc(C(=O)NC)c4)n3)C2)c1 [Example 17]", "MEASUREMENT_UNITS": "µM", "IC50": 0.3}
{"COMPOUND": "CNC(=O)c1cccc(Nc2ncnc(N3CC(COc4ccc(Cl)c(Cl)c4)C3)n2)c1 [Example 158]", "MEASUREMENT_UNITS": "µM", "IC50": 3.5}
{"COMPOUND": "C#Cc1cccc(OC2CN(c3ncnc(Nc4cccc(C(=O)NC)c4)n3)C2)c1 [Example 78]", "MEASUREMENT_UNITS": "µM", "IC50": 0.99}

###

biological target: human Nav1.7 (hNav1.7) (Homo sapiens, UniProt Q15858); construct: expressed in transfected cells; test: hNav1.7 whole-cell patch-clamp electrophysiology (automated PatchXpress 7000A or manual) in stably expressing 293 cells; assay type: cell-based; conditions: average IC50
Measured IC50 by item
METRIC: IC50 (µM)

{"COMPOUND": "CNC(=O)c1cccc(Nc2ncnc(N3CCC(OCc4cccc(OC(F)(F)F)c4)CC3)n2)c1 [Example 277]", "METRIC": "IC50", "MEASUREMENT_UNITS": "µM", "REPORTED_RELATION": "=", "OBSERVED": 25.4}
{"COMPOUND": "CNC(=O)c1cccc(Nc2ncnc(N3CCc4c(cnn4-c4ccccc4)C3)n2)c1 [Example 268]", "METRIC": "IC50", "MEASUREMENT_UNITS": "µM", "REPORTED_RELATION": "=", "OBSERVED": 20.9}
{"COMPOUND": "CNC(=O)c1cccc(Nc2ncnc(N3CCN(c4ccc(F)c(Cl)c4)CC3)n2)c1 [Example 271]", "METRIC": "IC50", "MEASUREMENT_UNITS": "µM", "REPORTED_RELATION": "=", "OBSERVED": 21.4}
{"COMPOUND": "CNC(=O)c1cccc(Nc2ncnc(N3CC(Oc4ccccc4C#N)C3)n2)c1 [Example 297]", "METRIC": "IC50", "MEASUREMENT_UNITS": "µM", "REPORTED_RELATION": ">", "OBSERVED": 30}
{"COMPOUND": "CNC(=O)c1cccc(Nc2ncnc(N3CCc4cccc(C(F)(F)F)c4C3)n2)c1 [Example 269]", "METRIC": "IC50", "MEASUREMENT_UNITS": "µM", "REPORTED_RELATION": "=", "OBSERVED": 21}
{"COMPOUND": "Cc1ccc(N2CCN(c3ncnc(Nc4ccc(F)c(C(N)=O)c4)n3)CC2)cc1C [Example 295]", "METRIC": "IC50", "MEASUREMENT_UNITS": "µM", "REPORTED_RELATION": ">", "OBSERVED": 30}
{"COMPOUND": "CNC(=O)c1cc(F)cc(Nc2ncnc(NCCCOc3ccc(OC(F)(F)F)cc3)n2)c1 [Example 282]", "METRIC": "IC50", "MEASUREMENT_UNITS": "µM", "REPORTED_RELATION": ">", "OBSERVED": 30}
{"COMPOUND": "CNC(=O)c1cccc(Nc2ncnc(N3CC(Oc4c(F)cccc4F)C3)n2)c1 [Example 274]", "METRIC": "IC50", "MEASUREMENT_UNITS": "µM", "REPORTED_RELATION": "=", "OBSERVED": 22.1}
